# experimental-system: AAK1 (Homo sapiens)
# Construct: HA; expressed in transfected cells; host or cells: HEK293F
# procedure-text: HEK281 cell-based assay (phospho-mu2 Western blot in transfected HEK293F cells)
# condition-info: 3 hours incubation, read-out: CBA IC50
pIC50: −log10 of the molar value.
endpoint-name: pIC50

>  <molecule>
NCc1ccc(-c2cnc3ccc(NCC4CCOC4)nn23)cc1 (stereo not drawn)

>  <endpoint-name>
pIC50

>  <result>
≥ 6.00

$$$$
>  <molecule>
O=C(CC(F)(F)F)N1CCC[C@H]1CNc1ccc2ncc(-c3ccccc3)n2n1

>  <endpoint-name>
pIC50

>  <result>
≥ 8.00

$$$$
>  <molecule>
CCCCNc1ccc2ncc(C(=O)Nc3ccc(CN)cc3)n2n1

>  <endpoint-name>
pIC50

>  <result>
≥ 6.00

$$$$
>  <molecule>
NCc1ccc(-c2cnc3ccc(NCCC4CC4)nn23)cc1

>  <endpoint-name>
pIC50

>  <result>
≥ 6.00

$$$$
>  <molecule>
CC(C)OC(=O)N(CCNc1ccc2ncc(-c3ccc(C(N)=O)cc3)n2n1)C(C)C

>  <endpoint-name>
pIC50

>  <result>
≥ 7.00

$$$$
>  <molecule>
CC(C)(C)COCCNc1ccc2ncc(-c3ccc(CN)cc3)n2n1

>  <endpoint-name>
pIC50

>  <result>
≥ 7.00

$$$$
>  <molecule>
CC(C)(C)OC(=O)N1CCC[C@H]1CNc1ccc2ncc(-c3ccc(CN)cc3)n2n1

>  <endpoint-name>
pIC50

>  <result>
≥ 8.00

$$$$
>  <molecule>
CC(C)(O)CCNc1ccc2ncc(-c3ccc(CN)cc3)n2n1

>  <endpoint-name>
pIC50

>  <result>
≥ 7.00

$$$$

Query string: Checklist item: pIC50 tested on AAK1 (Homo sapiens), entry NCc1ccc(-c2cnc3ccc(NCCc4cccc(C(F)(F)F)c4)nn23)cc1 , value?
Result string: ≥ 7.00

Query string: Checklist item: pIC50 tested on AAK1 (Homo sapiens), entry CC(=O)c1ccc(-c2cnc3ccc(NCCN(C)C(=O)OC(C)(C)C)nn23)s1 , value?
Result string: ≥ 8.00

Query string: Checklist item: pIC50 tested on AAK1 (Homo sapiens), entry CCOC(=O)N1CCC[C@H]1CNc1ccc2ncc(Br)n2n1 , value?
Result string: ≥ 7.00

###

# experimental-system: AAK1 (Homo sapiens, UniProt Q2M2I8)
# Construct: HA; expressed in transfected cells; host or cells: HEK293F
# Sequence (Q2M2I8 1-863 isoform Q2M2I8-2): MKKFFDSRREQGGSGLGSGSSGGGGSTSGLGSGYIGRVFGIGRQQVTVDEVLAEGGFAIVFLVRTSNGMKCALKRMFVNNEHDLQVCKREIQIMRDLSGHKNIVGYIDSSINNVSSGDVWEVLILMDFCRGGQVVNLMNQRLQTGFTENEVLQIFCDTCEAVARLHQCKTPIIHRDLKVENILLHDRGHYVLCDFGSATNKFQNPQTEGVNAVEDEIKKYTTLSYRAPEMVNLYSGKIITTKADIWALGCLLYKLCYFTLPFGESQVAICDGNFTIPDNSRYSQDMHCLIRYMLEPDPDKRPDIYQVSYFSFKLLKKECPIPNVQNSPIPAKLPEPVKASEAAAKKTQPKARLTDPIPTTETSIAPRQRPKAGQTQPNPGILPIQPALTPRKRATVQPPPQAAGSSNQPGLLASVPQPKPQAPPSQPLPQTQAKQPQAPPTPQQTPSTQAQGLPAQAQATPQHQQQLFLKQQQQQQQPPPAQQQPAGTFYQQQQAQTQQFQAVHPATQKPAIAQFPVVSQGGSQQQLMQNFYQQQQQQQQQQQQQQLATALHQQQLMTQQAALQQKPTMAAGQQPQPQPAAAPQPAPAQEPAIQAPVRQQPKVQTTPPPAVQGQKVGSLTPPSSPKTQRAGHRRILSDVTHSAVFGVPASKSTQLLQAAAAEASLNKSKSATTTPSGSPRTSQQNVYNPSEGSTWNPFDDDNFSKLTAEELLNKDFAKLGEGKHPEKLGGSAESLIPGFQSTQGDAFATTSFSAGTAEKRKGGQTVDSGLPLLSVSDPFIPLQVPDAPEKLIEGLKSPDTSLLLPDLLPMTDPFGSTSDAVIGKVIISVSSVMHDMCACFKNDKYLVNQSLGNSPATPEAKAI
# procedure-text: HEK281 cell-based assay (phospho-mu2 Western blot in transfected HEK293F cells)
# condition-info: 3 hours incubation, read-out: CBA IC50
endpoint-name: IC50

Solved cases below.
>  <smiles-record>
CCCCNc1ccc2ncc(-c3ccc(CNCCCN)cc3)n2n1

>  <IC50>
≤ 1000 nM

$$$$
>  <smiles-record>
CC(C)(C)CCN1C(=O)CC[C@H]1CNc1ccc2ncc(Br)n2n1

>  <IC50>
≤ 100 nM

$$$$

Query string: Returns the measured IC50 for the input compound. Input: CC(C)(C)CCNc1ccc2ncc(-c3ccc(CNCCN)cc3)n2n1
Result string: ≤ 1000 nM

Query string: Returns the measured IC50 for the input compound. Input: COc1ccccc1-c1cnc2ccc(N3CCN(C(=O)N4CCCCC4)CC3)nn12
Result string: ≤ 100 nM

Query string: Returns the measured IC50 for the input compound. Input: CC(C)OC(=O)N(C)CCCNc1ccc2ncc(-c3ccc(CN)cc3)n2n1
Result string: ≤ 100 nM

Query string: Returns the measured IC50 for the input compound. Input: CCCCN(C)c1ccc2ncc(-c3ccc(CN)cc3)n2n1
Result string: ≤ 1000 nM

Query string: Returns the measured IC50 for the input compound. Input: CCOC(=O)N(C)CCNc1ccc2ncc(-c3ccc(C(=O)NC(C)(C)C)cc3)n2n1
Result string: ≤ 100 nM

Query string: Returns the measured IC50 for the input compound. Input: CCOC(=O)CCCNc1ccc2ncc(-c3ccc(C(C)=O)s3)n2n1
Result string: ≤ 100 nM

Query string: Returns the measured IC50 for the input compound. Input: COc1cc(-c2cnc3ccc(N4CC[C@H](N(C)C(=O)OC(C)C)C4)nn23)c(OC)nn1
Result string: ≤ 100 nM

Query string: Returns the measured IC50 for the input compound. Input: CC(C)OC(=O)N(C)CCNc1ccc2ncc(-c3cn[nH]c3)n2n1
Result string: ≤ 100 nM

Query string: Returns the measured IC50 for the input compound. Input: CN(CCNc1ccc2ncc(-c3ccnc(F)c3)n2n1)C(=O)OC(C)(C)C
Result string: ≤ 100 nM

###

# experimental-system: AAK1 (Homo sapiens, UniProt Q2M2I8)
# Construct: HA; expressed in transfected cells; host or cells: HEK293F
# procedure-text: HEK281 cell-based assay (phospho-mu2 Western blot in transfected HEK293F cells)
# condition-info: 3 hours incubation, read-out: CBA IC50
Some compounds, each annotated with its measured IC50.

>  <compound>
COc1cnccc1-c1cnc2ccc(N3CCN(C(=O)N4CCCC4)CC3)nn12

>  <result>
≤ 100 nM

$$$$
>  <compound>
CCCCNc1ccc2ncc(-c3ccc(CNCCN)cc3)n2n1

>  <result>
≤ 1000 nM

$$$$
>  <compound>
CCCCNc1ccc2ncc(-c3ccc(CNC(C)(C)C)cc3F)n2n1

>  <result>
≤ 1000 nM

$$$$
>  <compound>
Fc1cnccc1-c1cnc2ccc(NCCOC3CCCC3)nn12

>  <result>
≤ 100 nM

$$$$
>  <compound>
COc1ncccc1-c1cnc2ccc(N(C)C[C@@H]3CCCN3C(=O)OC(C)C)nn12

>  <result>
≤ 10 nM

$$$$
>  <compound>
CCCCNc1ccc2ncc(-c3ccncc3OC)n2n1

>  <result>
≤ 100 nM

$$$$
>  <compound>
NCc1ccc(-c2cnc3ccc(NCCCc4ccc(F)cc4)nn23)cc1

>  <result>
≤ 100 nM

$$$$
>  <compound>
CC(C)CCNc1ccc2ncc(-c3ccc(CN)cc3)n2n1

>  <result>
≤ 1000 nM

$$$$

Query string: Checklist item: IC50 tested on AAK1 (Homo sapiens, UniProt Q2M2I8), entry COc1cncc(-c2cnc3ccc(NCCOC4CCCC4)nn23)c1 , value?
Result string: ≤ 100 nM

Query string: Checklist item: IC50 tested on AAK1 (Homo sapiens, UniProt Q2M2I8), entry CC(C)OC(=O)N(C)CCNc1ccc2ncc(-c3ccccc3F)n2n1 , value?
Result string: ≤ 100 nM

Query string: Checklist item: IC50 tested on AAK1 (Homo sapiens, UniProt Q2M2I8), entry CN(CCNc1ccc2ncc(-c3cccc(C(N)=O)c3)n2n1)C(=O)OC(C)(C)C , value?
Result string: ≤ 100 nM

Query string: Checklist item: IC50 tested on AAK1 (Homo sapiens, UniProt Q2M2I8), entry COc1ccc(-c2cnc3ccc(N4CC[C@H](N(C)C(=O)OC(C)C)C4)nn23)c(OC)n1 , value?
Result string: ≤ 100 nM

Query string: Checklist item: IC50 tested on AAK1 (Homo sapiens, UniProt Q2M2I8), entry CCOc1ccccc1CCNc1ccc2ncc(-c3ccncc3OC)n2n1 , value?
Result string: ≤ 100 nM

Query string: Checklist item: IC50 tested on AAK1 (Homo sapiens, UniProt Q2M2I8), entry CCOC(=O)CCCNc1ccc2ncc(-c3ccc(CN)cc3)n2n1 , value?
Result string: ≤ 100 nM

Query string: Checklist item: IC50 tested on AAK1 (Homo sapiens, UniProt Q2M2I8), entry CC(C)(C)OCCNc1ccc2ncc(-c3ccc(C4CCCN4)cc3)n2n1 (stereo not shown) , value?
Result string: ≤ 100 nM

Query string: Checklist item: IC50 tested on AAK1 (Homo sapiens, UniProt Q2M2I8), entry CC(C)OC(=O)N1CCC[C@H]1CNc1ccc2ncc(-c3ccc(CN)cc3)n2n1 , value?
Result string: ≤ 10 nM

Query string: Checklist item: IC50 tested on AAK1 (Homo sapiens, UniProt Q2M2I8), entry CC(C)OCCNc1ccc2ncc(-c3ccc(C(=O)NCCN4CCCC4)cc3)n2n1 , value?
Result string: ≤ 100 nM

Query string: Checklist item: IC50 tested on AAK1 (Homo sapiens, UniProt Q2M2I8), entry CCOC(=O)N(C)CCCNc1ccc2ncc(-c3ccc(C(C)=O)s3)n2n1 , value?
Result string: ≤ 1000 nM

Query string: Checklist item: IC50 tested on AAK1 (Homo sapiens, UniProt Q2M2I8), entry CC(C)(C)OCCNc1ccc2ncc(-c3ccc(CN)cc3)n2n1 , value?
Result string: ≤ 100 nM
